TEST_SYSTEM: human ether-à-go-go-related gene (hERG) potassium channel (human, UniProt Q12809);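 also: peak tail current of the secondary pulse compared with the same well before compound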
Sequence (Q12809 whole entry, looked up): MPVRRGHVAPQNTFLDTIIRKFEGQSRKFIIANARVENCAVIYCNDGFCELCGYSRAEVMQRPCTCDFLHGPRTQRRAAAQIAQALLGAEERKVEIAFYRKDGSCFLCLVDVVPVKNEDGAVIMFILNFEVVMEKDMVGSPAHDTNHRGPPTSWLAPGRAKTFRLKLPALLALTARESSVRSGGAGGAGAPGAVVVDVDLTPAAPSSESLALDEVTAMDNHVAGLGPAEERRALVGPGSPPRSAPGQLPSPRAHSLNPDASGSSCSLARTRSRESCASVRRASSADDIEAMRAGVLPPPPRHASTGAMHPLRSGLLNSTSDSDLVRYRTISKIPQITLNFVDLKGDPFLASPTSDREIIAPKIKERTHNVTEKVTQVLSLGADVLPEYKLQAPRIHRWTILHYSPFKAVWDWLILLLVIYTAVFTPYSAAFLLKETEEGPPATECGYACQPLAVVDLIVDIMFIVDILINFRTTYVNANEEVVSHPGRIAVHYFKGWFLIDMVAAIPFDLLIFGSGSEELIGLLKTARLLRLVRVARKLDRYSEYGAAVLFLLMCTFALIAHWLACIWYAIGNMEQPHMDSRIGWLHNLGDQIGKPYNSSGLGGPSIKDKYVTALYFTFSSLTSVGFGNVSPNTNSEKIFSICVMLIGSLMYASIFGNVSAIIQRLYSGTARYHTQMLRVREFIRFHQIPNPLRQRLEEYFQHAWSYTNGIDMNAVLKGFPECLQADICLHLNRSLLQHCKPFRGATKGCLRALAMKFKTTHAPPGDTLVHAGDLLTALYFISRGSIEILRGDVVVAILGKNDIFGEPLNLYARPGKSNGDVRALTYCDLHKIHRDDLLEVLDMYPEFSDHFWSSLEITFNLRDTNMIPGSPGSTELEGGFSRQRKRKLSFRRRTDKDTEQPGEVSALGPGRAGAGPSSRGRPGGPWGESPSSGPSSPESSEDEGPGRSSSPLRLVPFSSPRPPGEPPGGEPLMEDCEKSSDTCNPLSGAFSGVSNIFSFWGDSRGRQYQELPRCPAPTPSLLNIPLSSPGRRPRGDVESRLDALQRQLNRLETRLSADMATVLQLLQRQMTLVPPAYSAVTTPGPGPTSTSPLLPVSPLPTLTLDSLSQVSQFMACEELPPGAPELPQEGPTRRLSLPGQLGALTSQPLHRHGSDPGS
PROTOCOL_SUMMARY: primary screen, population patch clamp on CHO cells stably expressing hERG; higher = less effect of the substance
Out of some 310,000 compounds screened, about 14,000 (4.5%) showed an effect of 50% or more. The effect is printed as a negative number. For the sample, strong results were picked, then their nearest neighbours and some compounds at random.
Answer label 0 if hERG current change (%, negative = inhibition) at 10uM is under -20%, and label 1 if it is -20% or more.

Past entries and their recorded results:
| COMPOUND | TEST_SYSTEM | GROUP |
| --- | --- | --- |
| COc1ccc(NC(=O)c2ccccc2OCc2c(C)noc2C)cc1OC | human ether-à-go-go-related gene (hERG) potassium channel (human, UniProt Q12809) | label 0 |
| CCOc1ccccc1C1CC(=O)Nc2cc3c(cc21)OCCO3 (centres unmarked) | human ether-à-go-go-related gene (hERG) potassium channel (human, UniProt Q12809) | label 1 |
| Cc1nc(C(C)N(C)Cc2c(C(=O)N3CCCCC3)nc3c(C)cccn23)c(C)s1 (centres unmarked) | human ether-à-go-go-related gene (hERG) potassium channel (human, UniProt Q12809) | label 0 |
| COc1ccc(Cn2c(CCC(=O)Nc3ccccc3OC)nc3cccnc32)cc1 | human ether-à-go-go-related gene (hERG) potassium channel (human, UniProt Q12809) | label 1 |

Switching to the query record.
Exam item: Hello, I need to know if Cc1cccc(CN2CCN(CCCc3ccccc3)CC2)c1.O=C(O)C(=O)O has measured hERG current change (%, negative = inhibition) at 10uM not below -20%. Thanks!
Marked response: label 0
